# TGT: CCR1 (Homo sapiens)
# Sequence (P32246 whole entry): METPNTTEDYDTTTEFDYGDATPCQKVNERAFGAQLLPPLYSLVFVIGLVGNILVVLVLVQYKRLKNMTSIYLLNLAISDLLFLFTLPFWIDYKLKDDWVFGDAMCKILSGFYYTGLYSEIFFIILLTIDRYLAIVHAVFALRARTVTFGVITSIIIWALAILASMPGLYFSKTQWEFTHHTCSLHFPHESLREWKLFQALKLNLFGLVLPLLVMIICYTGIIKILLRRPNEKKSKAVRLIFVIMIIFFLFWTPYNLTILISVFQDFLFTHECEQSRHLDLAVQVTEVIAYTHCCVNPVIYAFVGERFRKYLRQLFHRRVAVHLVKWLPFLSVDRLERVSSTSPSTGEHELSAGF
# EXPERIMENT NOTES: functional cellular assay measuring calcium flux in response to MIP1α in CCR1-transfected cells (Method A or Method B)
# CONDITION DETAILS: cells stably expressing recombinant CCR1 and G-alpha-16; MIP-1alpha added at EC80; method (A: FLIPR TETRA, B: FDSS6000) not stated per compound
# Method: Compounds are assessed for the ability to block the interaction of CCR1 and its ligands in a functional cellular assay measuring calcium flux in response to MIP1α in CCR1-transfected cells. […] Method B: Non-adherent cells purchased from Chemicon Corporation (HTS005C), stably expressing recombinant CCR1 and G-alpha-16 are grown in RPMI 1640 medium (Mediatech 10-080-CM) supplemented with 10% FBS, 0.4 mg/mL Geneticin and penicillin/streptomycin. […] Data are analyzed using Activity Base software.
Mark 1 only when IC50 stays strictly below 40 nM. Values equal to the cut-off are -1.

Observe how each entry below is paired with its result.
* CCCC(NC(=O)c1cnn(-c2ccc(Cl)cc2)c1C)c1ccnc(S(=O)(=O)CCC(=O)OC)c1 (centres unmarked) | -1
* CCC[C@H](NC(=O)c1cnn(-c2ccc(Cl)cc2)c1CO)c1cccc(C(F)(F)F)c1 | 1
* CCCC(NC(=O)c1cnn(-c2ccc(Cl)cc2)c1C)c1ccnc(S(C)(=O)=O)c1 (centres unmarked) | 1
* CCCC(NC(=O)c1cnn(-c2ccc(Cl)cc2)c1C)c1ccc(S(=O)(=O)C2CC2)nc1 (centres unmarked) | -1
* CCCC(NC(=O)c1cnn(-c2ccc(Cl)cc2)c1C)c1ccc(S(=O)(=O)CCCO)nc1 (centres unmarked) | -1

Would you kindly verify if IC50 of CCCC(NC(=O)c1cnn(-c2ccc(Cl)cc2)c1C)c1cncc(S(C)(=O)=O)c1 (centres unmarked) is strictly less than 40 nM?
1

Please indicate whether the reported IC50 of CCCC(NC(=O)c1cnn(-c2ccc(Cl)cc2)c1C)c1ccnc(S(=O)(=O)C2CC2)c1 (centres unmarked) is strictly below 40 nM.
1
